B1: IFRG15 (parent)
chain: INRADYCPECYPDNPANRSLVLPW

- Variants of: B1
- ASSAY_COMMENT: protein stability index of a GFP-peptide fusion (GPS, HEK-293T) (PSI 1-6); higher = more stable;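 note: lentivirally expressed fusions sorted by FACS into six bins by GFP to DsRed ratio, PSI derived from sequencing read proportions per bin multiplied by bin number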
- CONDITION_SUMMARY: c terminus: a fixed tail appended
Criterion: protein stability index meeting or surpassing 2. Met: True. Not met: False.

Solved entries (count: 5):
# MUTATION_NOTATION, CLASS_LABEL
data = [
    ("C7Q", "True"),
    ("W24S", "True"),
    ("P23H", "False"),
    ("V21C", "False"),
    ("Y11K", "True"),
]

query: Could you verify whether the entry `A4S` shows protein stability index of no less than 2?
result: True

query: Then `R3M` ?
result: False

query: Then `I1K` ?
result: True
